Biological target: hemagglutinin (HA) of influenza B virus B/Malaysia (Victoria lineage) (influenza B virus B/Malaysia/04 …)
Assay: ForteBio Octet; antigen on the sensor, varying antibody concentrations
measured_attribute: Kd

>>> reported("TRL848 (antibody, V domains shown) VH: QVQLLESGGDVVQPGTSLRLSCAASGFSLWTSGMHWVRQAPGKGLEWVAVMSYDETKKYYADSVRGRFSISRDNSRNTLYLQMNSLRVEDTAVYFCAKPRLDYLDYFHAADSWGQGTLVSVSS VL: DIVLTQPPSVSVAPGQTATITCGGNYIGSKSVNWYQQRPGHAPVLVVYDDSDRPSGIPDRFSGSNSRSTATTATLTISRVEAGDEADYYCQVWETSEDLWVFGGGTKLTVLG")
"< 1 nM"
